- assay-method-text: Plasma pharmacokinetics of CC-223 and metabolite M1 in patients with NET
- Format: in vivo, human
- experimental-setup: human, plasma, po, 30 mg/day, geometric mean (%CV, n); plasma; CC-223 30 mg/day oral; Day 1
measurement-type: Cmax (ng/mL)
Numbers only, in ng/mL.

The compound listed as `CO[C@H]1CC[C@H](N2C(=O)CNc3ncc(-c4ccc(C(C)(C)O)nc4)nc32)CC1` shows Cmax equal to 133

---

- assay-method-text: Plasma pharmacokinetics of CC-223 and metabolite M1 in patients with NET
- Format: in vivo, human
- experimental-setup: human, plasma, po, 45 mg/day, geometric mean (%CV, n); plasma; CC-223 45 mg/day oral; Day 1
measurement-type: AUC(0-t) (ng·h/mL)
Answers are plain numbers, in ng·h/mL.

The molecule listed as CO[C@H]1CC[C@H](N2C(=O)CNc3ncc(-c4ccc(C(C)(C)O)nc4)nc32)CC1 [CC-223] shows AUC(0-t) equal to 1800

---

- assay-method-text: Plasma pharmacokinetics of CC-223 and metabolite M1 in patients with NET
- Type: in vivo, human
- experimental-setup: human, plasma, po, 30 mg/day, geometric mean (%CV, n); plasma; CC-223 30 mg/day oral; Day 15; n = 1
measurement-type: Cmax (ng/mL)
Give bare numbers, in ng/mL.

The compound listed as CO[C@H]1CC[C@H](N2C(=O)CNc3ncc(-c4ccc(C(C)(C)O)nc4)nc32)CC1 [CC-223] shows Cmax equal to 154

---

- assay-method-text: Plasma pharmacokinetics of CC-223 and metabolite M1 in patients with NET
- Format: in vivo, human
- experimental-setup: human, plasma, po, 30 mg/day, median (min, max, n); plasma; CC-223 30 mg/day oral; Day 15; read-out: Tmax
measurement-type: Tmax
I'd appreciate it if you included the unit after the number.

The compound listed as `CO[C@H]1CC[C@H](N2C(=O)CNc3ncc(-c4ccc(C(C)(C)O)nc4)nc32)CC1` shows Tmax equal to 1.5 h

---

- assay-method-text: Plasma pharmacokinetics of CC-223 and metabolite M1 in patients with NET
- Assay type: in vivo, human
- experimental-setup: human, plasma, po, 45 mg/day, geometric mean (%CV, n); plasma; CC-223 45 mg/day oral; Day 1
measurement-type: Cmax (ng/mL)
Numbers only, in ng/mL.

The compound listed as `CO[C@H]1CC[C@H](N2C(=O)CNc3ncc(-c4ccc(C(C)(C)O)nc4)nc32)CC1` shows Cmax equal to 347
